Reference for the values: paper PMC9033141

molecular target: CAVB (Homo sapiens, UniProt Q9Y2D0); construct: made in house; host or cells: E. coli; assay: Fluorescent thermal shift assay (FTSA), CAVB; format: binding; conditions: FTSA, pH 7.0, 37 °C; read-out: Observed Dissociation Constant (Kd_obs), CAVB
Sequence (Q9Y2D0 34-317): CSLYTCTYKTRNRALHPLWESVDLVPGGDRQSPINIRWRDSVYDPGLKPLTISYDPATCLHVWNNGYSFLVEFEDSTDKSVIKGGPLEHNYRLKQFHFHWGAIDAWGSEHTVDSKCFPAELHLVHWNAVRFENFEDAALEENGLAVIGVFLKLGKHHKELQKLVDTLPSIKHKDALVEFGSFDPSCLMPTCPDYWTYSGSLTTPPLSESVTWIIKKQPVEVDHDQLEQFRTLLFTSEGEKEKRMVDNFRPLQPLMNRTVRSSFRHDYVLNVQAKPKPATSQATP
pKd: −log10 of the molar value.

>  <compound>
NS(=O)(=O)c1ccc(NCC(Cc2n[nH]c(=S)n2-c2ccccc2)c2n[nH]c(=S)n2-c2ccccc2)c(Cl)c1 (stereo not drawn) [Compound 25b]

>  <pKd>
5.85

$$$$
>  <compound>
CCOC(=O)c1sc(N(CCC(=O)NN=Cc2ccccc2)c2ccc(S(N)(=O)=O)cc2)nc1C [Compound 34]

>  <pKd>
6.92

$$$$
>  <compound>
COC(=O)CCN(c1ccc(S(N)(=O)=O)cc1)c1nc(C)cs1 [Compound 28]

>  <pKd>
7.34

$$$$

* * *

Listing: pKd of selected molecules
biological target: CAIX (Homo sapiens, UniProt Q16790); construct: made in house; assay: biochemical; type: binding; conditions: FTSA, pH 7.0, 37 °C; read-out: Observed Dissociation Constant (Kd_obs), CAIX
pKd: −log10 of the molar value.
readout: pKd

>  <molecule>
Cc1cc(C)n(C(=O)CC(CNc2ccc(S(N)(=O)=O)cc2Cl)C(=O)n2nc(C)cc2C)n1 (centres unmarked) [Compound 20]

>  <assayed_system>
CAIX (Homo sapiens, UniProt Q16790)

>  <readout>
pKd

>  <observed_result>
7.00

$$$$
>  <molecule>
CCOC(=O)c1sc(N(CCC(=O)O)c2ccc(S(N)(=O)=O)cc2)nc1C [Compound 31]

>  <assayed_system>
CAIX (Homo sapiens, UniProt Q16790)

>  <readout>
pKd

>  <observed_result>
6.44

$$$$
>  <molecule>
NS(=O)(=O)c1ccc(NCC(Cc2n[nH]c(=S)n2-c2ccccc2)c2n[nH]c(=S)n2-c2ccccc2)c(Cl)c1 (centres unmarked) [Compound 25b]

>  <assayed_system>
CAIX (Homo sapiens, UniProt Q16790)

>  <readout>
pKd

>  <observed_result>
7.60

$$$$
>  <molecule>
NS(=O)(=O)c1ccc(NCC(CC(=O)NN=Cc2ccc([N+](=O)[O-])cc2)C(=O)NN=Cc2ccc([N+](=O)[O-])cc2)cc1 (centres unmarked) [Compound 17a]

>  <assayed_system>
CAIX (Homo sapiens, UniProt Q16790)

>  <readout>
pKd

>  <observed_result>
5.48

$$$$
>  <molecule>
CC(=NNC(=O)CC(CNc1ccc(S(N)(=O)=O)cc1Cl)C(=O)NN=C(C)c1ccccc1)c1ccccc1 (centres unmarked) [Compound 5b]

>  <assayed_system>
CAIX (Homo sapiens, UniProt Q16790)

>  <readout>
pKd

>  <observed_result>
6.74

$$$$
>  <molecule>
NS(=O)(=O)c1ccc(NCC(CC(=O)NN=Cc2cccc(Cl)c2)C(=O)NN=Cc2cccc(Cl)c2)c(Cl)c1 (centres unmarked) [Compound 11b]

>  <assayed_system>
CAIX (Homo sapiens, UniProt Q16790)

>  <readout>
pKd

>  <observed_result>
6.89

$$$$
>  <molecule>
Cc1csc(N(CCC(=O)O)c2ccc(S(N)(=O)=O)cc2)n1 [Compound 27]

>  <assayed_system>
CAIX (Homo sapiens, UniProt Q16790)

>  <readout>
pKd

>  <observed_result>
7.32

$$$$
>  <molecule>
Cc1csc(N(CCC(=O)NN)c2ccc(S(N)(=O)=O)cc2)n1 [Compound 29]

>  <assayed_system>
CAIX (Homo sapiens, UniProt Q16790)

>  <readout>
pKd

>  <observed_result>
7.10

$$$$
>  <molecule>
NS(=O)(=O)c1ccc(NCC(CC(=O)NN=Cc2ccccc2)C(=O)NN=Cc2ccccc2)c(Cl)c1 (centres unmarked) [Compound 6b]

>  <assayed_system>
CAIX (Homo sapiens, UniProt Q16790)

>  <readout>
pKd

>  <observed_result>
7.00

$$$$
>  <molecule>
CCC(C)=NN1C(=O)CC(CNc2ccc(S(N)(=O)=O)cc2Cl)C1=O (centres unmarked) [Compound 4b]

>  <assayed_system>
CAIX (Homo sapiens, UniProt Q16790)

>  <readout>
pKd

>  <observed_result>
6.60

$$$$
>  <molecule>
NS(=O)(=O)c1ccc(NCC(CC(=O)NN=Cc2cccc([N+](=O)[O-])c2)C(=O)NN=Cc2cccc([N+](=O)[O-])c2)c(Cl)c1 (centres unmarked) [Compound 16b]

>  <assayed_system>
CAIX (Homo sapiens, UniProt Q16790)

>  <readout>
pKd

>  <observed_result>
6.89

$$$$
>  <molecule>
NS(=O)(=O)c1ccc(NCC(CC(=O)NN=Cc2ccc(C(=O)O)cc2)C(=O)NN=Cc2ccc(C(=O)O)cc2)c(Cl)c1 (centres unmarked) [Compound 18b]

>  <assayed_system>
CAIX (Homo sapiens, UniProt Q16790)

>  <readout>
pKd

>  <observed_result>
6.60

$$$$
>  <molecule>
CCOC(=O)c1sc(N(CCC(=O)NN=Cc2ccccc2)c2ccc(S(N)(=O)=O)cc2)nc1C [Compound 34]

>  <assayed_system>
CAIX (Homo sapiens, UniProt Q16790)

>  <readout>
pKd

>  <observed_result>
6.77

$$$$
>  <molecule>
NS(=O)(=O)c1ccc(NCC(CC(=O)NN=Cc2ccc(O)cc2)C(=O)NN=Cc2ccc(O)cc2)c(Cl)c1 (centres unmarked) [Compound 9b]

>  <assayed_system>
CAIX (Homo sapiens, UniProt Q16790)

>  <readout>
pKd

>  <observed_result>
7.00

$$$$
>  <molecule>
CNC(=S)NNC(=O)CC(CNc1ccc(S(N)(=O)=O)cc1)C(=O)NNC(=S)NC (centres unmarked) [Compound 22a]

>  <assayed_system>
CAIX (Homo sapiens, UniProt Q16790)

>  <readout>
pKd

>  <observed_result>
6.48

$$$$
>  <molecule>
NS(=O)(=O)c1ccc(NCC(CC(=O)NN=Cc2ccc(Cl)cc2)C(=O)NN=Cc2ccc(Cl)cc2)cc1 (centres unmarked) [Compound 12a]

>  <assayed_system>
CAIX (Homo sapiens, UniProt Q16790)

>  <readout>
pKd

>  <observed_result>
6.00

$$$$
>  <molecule>
NS(=O)(=O)c1ccc(NCC(CC(=O)NN=Cc2ccccc2)C(=O)NN=Cc2ccccc2)cc1 (centres unmarked) [Compound 6a]

>  <assayed_system>
CAIX (Homo sapiens, UniProt Q16790)

>  <readout>
pKd

>  <observed_result>
6.25

$$$$
>  <molecule>
NS(=O)(=O)c1ccc(NCC(CC(=O)NN=Cc2ccccc2[N+](=O)[O-])C(=O)NN=Cc2ccccc2[N+](=O)[O-])c(Cl)c1 (centres unmarked) [Compound 15b]

>  <assayed_system>
CAIX (Homo sapiens, UniProt Q16790)

>  <readout>
pKd

>  <observed_result>
6.85

$$$$
>  <molecule>
NS(=O)(=O)c1ccc(NCC(CC(=O)NNC(=S)Nc2ccccc2)C(=O)NNC(=S)Nc2ccccc2)c(Cl)c1 (centres unmarked) [Compound 23b]

>  <assayed_system>
CAIX (Homo sapiens, UniProt Q16790)

>  <readout>
pKd

>  <observed_result>
7.48

$$$$
>  <molecule>
NS(=O)(=O)c1ccc(NCC(CC(=O)NN=Cc2cccc(O)c2)C(=O)NN=Cc2cccc(O)c2)cc1 (centres unmarked) [Compound 8a]

>  <assayed_system>
CAIX (Homo sapiens, UniProt Q16790)

>  <readout>
pKd

>  <observed_result>
6.17

$$$$
>  <molecule>
CC(C)=NNC(=O)CC(CNc1ccc(S(N)(=O)=O)cc1Cl)C(=O)NN=C(C)C (centres unmarked) [Compound 3b]

>  <assayed_system>
CAIX (Homo sapiens, UniProt Q16790)

>  <readout>
pKd

>  <observed_result>
6.17

$$$$
>  <molecule>
Cc1csc(N(CCC(=O)NN=Cc2ccccc2)c2ccc(S(N)(=O)=O)cc2)n1 [Compound 30]

>  <assayed_system>
CAIX (Homo sapiens, UniProt Q16790)

>  <readout>
pKd

>  <observed_result>
6.54

$$$$
>  <molecule>
NS(=O)(=O)c1ccc(NCC(CC(=O)NN=Cc2ccc(F)cc2)C(=O)NN=Cc2ccc(F)cc2)cc1 (centres unmarked) [Compound 13a]

>  <assayed_system>
CAIX (Homo sapiens, UniProt Q16790)

>  <readout>
pKd

>  <observed_result>
5.85

$$$$
>  <molecule>
NS(=O)(=O)c1ccc(NCC(CC(=O)NN=Cc2ccccc2Cl)C(=O)NN=Cc2ccccc2Cl)c(Cl)c1 (centres unmarked) [Compound 10b]

>  <assayed_system>
CAIX (Homo sapiens, UniProt Q16790)

>  <readout>
pKd

>  <observed_result>
6.89

$$$$
>  <molecule>
Cc1ccc(C)n1NC(=O)CC(CNc1ccc(S(N)(=O)=O)cc1)C(=O)Nn1c(C)ccc1C (centres unmarked) [Compound 19a]

>  <assayed_system>
CAIX (Homo sapiens, UniProt Q16790)

>  <readout>
pKd

>  <observed_result>
6.25

$$$$
>  <molecule>
NNC(=O)CC(CNc1ccc(S(N)(=O)=O)cc1Cl)C(=O)NN (centres unmarked) [Compound 2b]

>  <assayed_system>
CAIX (Homo sapiens, UniProt Q16790)

>  <readout>
pKd

>  <observed_result>
6.08

$$$$
>  <molecule>
NS(=O)(=O)c1ccc(NCC(CC(=O)NN=Cc2ccccc2[N+](=O)[O-])C(=O)NN=Cc2ccccc2[N+](=O)[O-])cc1 (centres unmarked) [Compound 15a]

>  <assayed_system>
CAIX (Homo sapiens, UniProt Q16790)

>  <readout>
pKd

>  <observed_result>
6.00

$$$$
>  <molecule>
NNC(=O)CC(CNc1ccc(S(N)(=O)=O)cc1)C(=O)NN (centres unmarked) [Compound 2a]

>  <assayed_system>
CAIX (Homo sapiens, UniProt Q16790)

>  <readout>
pKd

>  <observed_result>
5.40

$$$$
>  <molecule>
NS(=O)(=O)c1ccc(NCC(CC(=O)NN=Cc2cccc([N+](=O)[O-])c2)C(=O)NN=Cc2cccc([N+](=O)[O-])c2)cc1 (centres unmarked) [Compound 16a]

>  <assayed_system>
CAIX (Homo sapiens, UniProt Q16790)

>  <readout>
pKd

>  <observed_result>
5.85

$$$$
